The origin of these recorded values is PubChem BioAssay (NCI).

Catalogue of compounds with associated growth inhibition
experiment: NCI Yeast Anticancer Drug Screen. Data for the mlh1 rad18 strain (AID 175); conditions: S. cerevisiae mlh1 rad18 strain growth inhibition; at 50.0 µM; hits give high values
The panel holds about 79,000 compounds, 15% with a hit somewhere; the sample as a whole holds those more often.

compound: NC(=S)N/N=C/c1cccc(CC(O)(C(F)(F)F)C(F)(F)F)n1
growth inhibition, %: 24
--
compound: CCOC(=O)C(Cl)(NC(=O)OCc1ccccc1)C(F)(F)F (stereo not drawn)
growth inhibition, %: -56.1
--
compound: O=C(O)CCn1ccc2ccccc21
growth inhibition, %: 1.6

###

test: NCI Yeast Anticancer Drug Screen. Data for the cln2 rad14 strain (AID 165);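 further: 0% = growth equal to vehicle treated cultures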; conditions: S. cerevisiae cln2 rad14 strain, at 50.0 µM, hits give high values
Compounds without any hit were thinned out: in the full panel of roughly 79,000, 15% have a hit. *1 amine or outer side, *2 acyl side, *3 side chain or, on linkers, in order; H or OH if unused. Where a SMILES comes first, the peptide text is derived from it. Bridges are numbered along the chain shown (N, C = ends). [ ]: non-standard residue; d: D form. The star is where a group is joined. ξ: configuration not given here. Fmoc = O=C(OCC1c2ccccc2-c2ccccc21)*; X9 = O=C(C(CCCCNO[*:3])N[*:1])[*:2]; ξW = NC(Cc1c[nH]c2ccccc12)C(=O)O; ξP = O=C(O)C1CCCN1
Catalogue of compounds with associated growth inhibition

compound: O=C1c2ccccc2C(=O)N1CNc1cccc(Cl)c1
growth inhibition / %: 10.1
//
compound: COC(=O)CNc1cccc([N+](=O)[O-])c1
growth inhibition / %: -14.7
//
compound: COc1nnc(-c2ccccc2)c(-c2ccccc2)n1
growth inhibition / %: -9.6
//
compound: O=C1NC(c2ccccc2Cl)Nc2ccccc21 (configuration not stated)
growth inhibition / %: -32.1
//
compound: COc1ccc(/C=C2\N=C(c3ccccc3)OC2=O)c(Cl)c1OC
growth inhibition / %: 1.6
//
compound: COCCCNc1ccc([N+](=O)[O-])cn1
growth inhibition / %: 2.2
//
compound: CC(=O)/C(C=Nc1c(C)n(C)n(-c2ccccc2)c1=O)=C(/C)O
growth inhibition / %: 9.65
//
compound: COC(=O)Nc1cccc(OC(=O)NC2CCCCC2)c1
growth inhibition / %: 4.25
//
compound: COC(=O)Cc1onc(-c2ccccc2)c1[N+](=O)[O-]
growth inhibition / %: 19.9
//
compound: C=C(Cl)Cc1c(O)c2c(c(O)c1CC(=C)Cl)C(=O)c1ccccc1C2=O
growth inhibition / %: 1.8
//
compound: CC(C)CC(=O)NC(C(=O)NC(C(=O)NC(CC(C)C)C(O)CC(=O)NC(C)C(=O)NC(CC(C)C)C(O)CC(=O)O)C(C)C)C(C)C (configuration not stated)
growth inhibition / %: 7.6
//
compound: N#C/C(=C(\O)C(=O)O)c1ccc(-c2cccc3ccccc23)cc1
growth inhibition / %: 1.9
//
compound: CCCCS(=O)(=O)N(CCC)CCC
growth inhibition / %: -18.1
//
compound: C1=Cc2nc1c(-c1ccncc1)c1ccc([n-]1)c(-c1ccncc1)c1nc(c(-c3ccncc3)c3ccc([n-]3)c2-c2ccncc2)C=C1.[Zn+2]
growth inhibition / %: 15.7
//
compound: NC(=O)CNC(=O)C1CCCN1C(=O)C1CCCCNOC(=O)CC[C@@H](NC(=O)OCC2c3ccccc3-c3ccccc32)C(=O)NC(Cc2c[nH]c3ccccc23)C(=O)N1 (some centres not stated) (Fmoc-[dE][ξW][X9][ξP]G-NH2; ester 1-3)
growth inhibition / %: 24.1
//
compound: CCN(CC)CCCOC(c1ccccc1)c1ccc(Cl)cc1 (configuration not stated)
growth inhibition / %: 41.9
//
compound: CCCCC(C)(O)CCC (configuration not stated)
growth inhibition / %: 5.05
